Below: a set of entries, each annotated with reported IC50.
TESTED_TARGET: BACE1 (Homo sapiens)
Construct: purchased PanVera Corporation, Madison, WI, USA P2985
Sequence (P56817 46-501): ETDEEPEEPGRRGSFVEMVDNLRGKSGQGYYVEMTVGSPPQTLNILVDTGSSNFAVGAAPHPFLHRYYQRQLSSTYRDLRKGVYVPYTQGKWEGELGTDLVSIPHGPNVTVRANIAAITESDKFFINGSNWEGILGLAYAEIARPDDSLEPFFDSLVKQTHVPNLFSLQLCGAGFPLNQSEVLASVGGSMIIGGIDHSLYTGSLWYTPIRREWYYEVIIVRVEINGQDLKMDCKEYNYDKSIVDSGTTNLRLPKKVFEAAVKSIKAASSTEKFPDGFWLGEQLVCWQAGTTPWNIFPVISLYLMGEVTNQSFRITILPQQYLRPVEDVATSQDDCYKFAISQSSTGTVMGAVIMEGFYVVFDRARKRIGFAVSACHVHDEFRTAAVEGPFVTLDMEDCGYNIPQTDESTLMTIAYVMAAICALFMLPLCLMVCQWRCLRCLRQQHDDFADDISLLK
TEST_DETAILS: BACE1 (β-secretase) FRET inhibitory assay
Format: biochemical
CONDITION_DESCRIPTION: isolated compounds; mean ± SD, n = 3; read-out: IC50 BACE1
# number only, unit µM dropped from output

Query: Any idea what its IC50 is? The compound is O=c1c(O[C@@H]2O[C@H](CO)[C@@H](O)[C@H](O)[C@H]2O)c(-c2ccc(O)cc2)oc2cc(O[C@@H]3O[C@@H](CO)[C@H](O)[C@H]3O)cc(O)c12
Response: 39.1

Query: Any idea what its IC50 is? The compound is COc1cc(/C=C/C(=O)O)ccc1O[C@@H]1O[C@H](CO)[C@@H](O)[C@H](O)[C@H]1O [Compound 3, lavandoside]
Response: 235

Query: Any idea what its IC50 is? The compound is COc1cc(/C=C/C(=O)O)cc(OC)c1O[C@@H]1O[C@H](CO)[C@@H](O)[C@H](O)[C@H]1O [Compound 4, trans-p-sinapoyl-β-D-glucopyranoside]
Response: 147

Others:
Query: Any idea what its IC50 is? The compound is C[C@@H]1O[C@@H](Oc2c(-c3ccc(O)cc3)oc3cc(O[C@@H]4O[C@H](CO)[C@@H](O)[C@H](O)[C@H]4O)cc(O)c3c2=O)[C@H](O)[C@H](O)[C@H]1O [Compound 6, kaempferol 3-O-rhamnoside 7-O-glucoside]
Response: 83.3

Data origin: paper PMC11358882
